assay: in vivo; conditions: male, Sprague-Dawley, rat, plasma, other: intracolonic bolus into the ligated colon, 10 mg/rat
quantity measured: bioavailability (%)

structure notation: NCC1(CC(=O)O)CCCCC1
quantity measured: bioavailability
reading unit: %
readout number: 4.9
